meta.source: paper PMC5075052

- System: S. aureus ATCC 6538
- Method summary: Monospecies bacterial biofilm inhibition, static peg assay (Calgary device, crystal violet; planktonic OD600)
- Type: cell-based, Staphylococcus aureus
- Condition info: Staphylococcus aureus, ATCC6538, read-out: BIC50 (concentration needed to inhibit biofilm formation by 50%), S. aureus ATCC 6538, 37°C
Rule for this label: TRUE means IC50 is less than 60 µM; FALSE means IC50 is at least 60 µM.

Brc1ccc(-c2cnc(NCCn3cc(C4CC4)nn3)[nH]2)cc1    FALSE
CC(C)CNc1ncc(-c2ccc(Cl)cc2)[nH]1    FALSE
O=C(N/N=C/c1ccc([N+](=O)[O-])o1)c1ccc(O)cc1 [Nifuroxazide, reference compound]    FALSE
Clc1ccc(-c2cnc(NC3CCCC3)[nH]2)cc1    TRUE
O=c1cc(-c2ccccc2)oc2cc(O)c(O)c(O)c12 [Baicalein, reference compound]    FALSE
